studyTarget: T1, GII.4 Houston 2002 (ABY27560.1) VLPs (human norovirus GII.4 Houston 2002, UniProt P54635 1-539)
T1 construct: also called GII.4 Houston 2002 antigen; GII.4 Houston VLPs
T1 chain: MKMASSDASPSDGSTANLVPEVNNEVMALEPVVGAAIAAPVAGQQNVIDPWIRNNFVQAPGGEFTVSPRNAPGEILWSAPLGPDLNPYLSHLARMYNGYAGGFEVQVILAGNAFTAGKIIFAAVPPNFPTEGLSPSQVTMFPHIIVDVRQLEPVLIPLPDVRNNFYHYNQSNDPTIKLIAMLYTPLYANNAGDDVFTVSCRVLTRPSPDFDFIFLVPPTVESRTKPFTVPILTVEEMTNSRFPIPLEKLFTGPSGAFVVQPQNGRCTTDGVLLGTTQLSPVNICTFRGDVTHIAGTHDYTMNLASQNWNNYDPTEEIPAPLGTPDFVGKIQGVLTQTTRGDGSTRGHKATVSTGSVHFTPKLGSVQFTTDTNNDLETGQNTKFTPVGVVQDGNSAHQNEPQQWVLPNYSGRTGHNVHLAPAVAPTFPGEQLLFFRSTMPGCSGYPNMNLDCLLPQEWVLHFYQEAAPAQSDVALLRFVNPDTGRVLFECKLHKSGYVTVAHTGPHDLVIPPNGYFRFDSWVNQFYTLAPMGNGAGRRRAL
experimentalDetails: ELISA on GII.4 Houston 2002 VLPs
attributeMeasured: binding result

INSERT INTO measurements (binder, attributemeasured, observedvalue) VALUES
  ('NORO-315B (antibody, V domains shown) VH: QVQLVESGGGLVKPGGSLRLSCVASGFTFSDYYMTWFRQTPGRGLEWLSYISAIGGYTEYADSVKSRFIISRDNGKKSLYLQMNSLRAEDSGVYYCAREDCHGTSCYSGDWGQGTLVTVSS VL: QSVLTQPPSVSGAPGQRVTISCTGSSSNIGAGYDVHWYQQLPGTAPKLLIYHNTNRPSGVPDRFSGSKSGTSAYLTITGLQAEDEADYYCQSYDRSLSKSRVFSGGTKLTVL', 'binding result', 'binds'),
  ('NORO-123 (antibody, V domains shown) VH: QVQLVESGGGVVQPGRSLRLSCSTSGFTFSQYPMHWVRQAPGKGLEWVALISYDGMNKYYADSVRGRFTISRDNSENTQYLQMNSLRGDDTAVYYCARVTGDCTGNRCSYWAYYYYGLDVWGQGTLVTVSS VL: QSALTQPPSASGSPGQSVTISCTGTSSDVGGYKYVSWYQQHPGKAPKLMIYEVTRRPSGVPDRFSGSKSGNTAFLTVSGLQAEDEADYYCGSYAGSTTSGYVFGTGTKVIVL', 'binding result', 'binds'),
  ('NORO-256A (antibody, V domains shown) VH: QVQLVESGGGVVQAGRSLRLSCAASGFTFRSYGMHWVRQAPGKGLEWVAIISYDGGSKYYADSVKGRFTISRDNSKNTLYLQMNSLRVEDTALYYCAKDFLRVYSYGWHSFDIWGLGTLVTVSS VL: QSVLTQPPSVSAAPGQRVTISCSGSSSNIGTYYVSWYQHLPGTAPKLLIYDNDKRPSGIPDRFSASKSGTSATLDIAGLQTGDEADYYCGTWDLSLTAGWVFGGGTKLTVL', 'binding result', 'binds');
